test: yeast display, Sf9 membrane polyspecificity reagent, FACS + sequencing; frameworks hold sequencing errors
VALUE TYPE: polyreactivity (PSR sort gate)

For orientation, consider the following solved cases.
{"QUERY SEQUENCE": "QVQLVDSGGGLVQAGGSLRLICPASGSIFSTYAMGWYRQAPGKERELLAAINRGTSTNYADSVKGRFTISRDNAKNTVYLQMNCLKPEDTAVYYCAAYYRGRYGPRRSEYWGQGTQVTVSS", "polyreactivity (PSR sort gate)": "high polyreactivity"}
{"QUERY SEQUENCE": "QVQLVESGGGLVQAGGSLRLSCAASGSIFGYYTMGWYRQAPGKERELVATISRSGGSTYYADSVKGRFTISRDNAKNTVYLQMNSLKPEDTAVYYCGARSWGGYDSRGYWGQGTQVTVSS", "polyreactivity (PSR sort gate)": "high polyreactivity"}
{"QUERY SEQUENCE": "QVQLVESGGGLVHAGGSLRLSCAASGRILVDYAMGWYRQAPGKERELVAAITSTGGTTYYADSVKGRFTISRDNAKNTVYLQMNSLKPEDTAVYYCAAKRQDSWGGTYGYWGQGTQVTVSS", "polyreactivity (PSR sort gate)": "low polyreactivity"}
{"QUERY SEQUENCE": "QVQLVESGGGLVQAGGSLRLSCAASGRIFRSNAMGWYSQAPGKERELVAAITLRGGSTFYADSVKGRFTISRDNAKNTVYLQMNSLKPEDTAVYYCAARSYWSRSIWSPYDYWGQGTQVTVSS", "polyreactivity (PSR sort gate)": "high polyreactivity"}
{"QUERY SEQUENCE": "QVQLVESGGGLVQAGGSLRLSCAASGFIFDYYAMGWYRQAPGKERELVATISSSGGSTYYADSVKGRFTISRDYAKKTVYLQMNSLKPEDTAVYYCATGYTWVADSWEYYYWGQGTQVTVSS", "polyreactivity (PSR sort gate)": "low polyreactivity"}
{"QUERY SEQUENCE": "QVQLVESGGGLVQAGGSLRLSCAASGITFGRNTMGWYRQAPGKERELVAAIDSGRNTYADSVKGRFTISRDNAKNPVYLQMNSLKPEYTAVYYCNADKSNFVRGYYWGQGTQVTVSS", "polyreactivity (PSR sort gate)": "low polyreactivity"}

Record QVQLVESGGGFVQAGGSLRLSCAASGSIFSVNTMGWYRQAPGKERELVATIRTGDSTNYADSVTGRFTISRDNAKNTVYLQMNSLKPEDTAVDYCAAEWSSLNFDYWGQGTQVTVSS . Reported polyreactivity (PSR sort gate): low polyreactivity

Record QVQLVESGGGLVQAGGSLRLSCAASGITFQRYVLGWYRQAPGKERELVAAISFTASSTYYADSVKGRFTISRDYAKKTVYLQMNSLKPEDTAVYYCAADGSVPKYVPYPRYYGYGYWGQGTQVTVSS . Reported polyreactivity (PSR sort gate): high polyreactivity

Record QVQLVESGGGLVQAGGSLRLSCAASGSTFYRYAMGWSRQAPGKERELVAAITWRGGSTYYADSVKGRFTISRDNAKNTLYLQMNSLKPEDTAVYYCAADSYYYRPYHYGYDYWGQGTQVTVSS . Reported polyreactivity (PSR sort gate): high polyreactivity

Record QVQLVESGGGLVQVGGSLRLSCAASGITLTYYALGWYRQAPGKERELVAAIDSGGTTHYADSVKGRFTISRDNAKNTVYLQMNSLKPEDTAVYYCAARPTRGHWWYGYWGQGTQVTVSS . Reported polyreactivity (PSR sort gate): low polyreactivity

Record QVQLVESGGGLVQAGGSLRLSCAASGSIFKCNSRGWYRQAPVKERELVAAITFSGSSTFYADSVKGRFTISRDTAKNTVYLQMNSLKTEDSALYYCNAVRRQQFGSWGQGTQGTVSS . Reported polyreactivity (PSR sort gate): high polyreactivity
